- protocol: yeast display, Sf9 membrane polyspecificity reagent, FACS + sequencing; frameworks hold sequencing errors
readout kind: polyreactivity (PSR sort gate)

INSERT INTO measurements (sequence_data, readout_kind, observed_result) VALUES
  ('QVQLVESCGGIVQAGGSLRLICAASGRIFDSNAMGWYRQSPGKETELVAAITTSGGSTFYADSVKVRFTISRDNAMNTVYLQMISLKPEDTAVYYCAAGYSFYYHAIFPFDYWGQGNQVTVSS', 'polyreactivity (PSR sort gate)', 'high polyreactivity'),
  ('QVQLEESGGGLVQAGGSLRLSCAASGNTFTEYAMGWYRPAPGKEWELVASITGSGGSTYADSVKGRFTISRDNAKNSVYLQMNSLIAEDTAVYYCAKDTRYEYVGSEYGYWGQGTQVTVSS', 'polyreactivity (PSR sort gate)', 'low polyreactivity'),
  ('QVQLVESGGGLVQAGGSLRLSCAASGRIFPRYAMGWYRQAPGKERQLVAAITSGDSTHYADSVKGRFTISRDNAKNTVYLQMNSLKPEDTAVYYCAAKYPRYGRHAYGYWGQGTQVTVSS', 'polyreactivity (PSR sort gate)', 'high polyreactivity'),
  ('QVQLVESGGGLVQAGGSLRLSCAASGFTFYAYAMGWYRQAPGKERELVAVITGGGSTYYADSVKGRFTISRDNAKNTVYLQMNSLKPEDTAVYYCAATYRGWLVGNGVWYWYYYWGQGTQVTVSS', 'polyreactivity (PSR sort gate)', 'high polyreactivity'),
  ('QVQLVESGGGLVQAGGSLRLSCAASGSTFVLYAMGWYRQAPGKERELVAAIDSSGGSTYYADSVKGRFTISRDNAKNTVYLQMNSLKPEDTAVYYCAKAGRYANLPYGYWGQGTQVTVSS', 'polyreactivity (PSR sort gate)', 'high polyreactivity'),
  ('QVQLVESGGGLVQAGGSLRLSCAASGRIFTSYVMGWYRQAPGKERELVAAITRTGGSTYYADSVKGRFTISRDNAKNTVYLQMNSLKPEDTAVYYCNALTRRQKGGEGGGYWGQGTQVTVSS', 'polyreactivity (PSR sort gate)', 'high polyreactivity'),
  ('QVQLVESGGGLVQAGGSLRLSCAASGGTLYYYAMGWSRQAPGKERELVADITNSGSTNYADSVKGRFTISRDNAKNTVYLQMNSLKPEDTAVYYCAAYSWSWYHPEFDYWGQGTQVTVSS', 'polyreactivity (PSR sort gate)', 'high polyreactivity'),
  ('QVQLVESGGGLVQAGGSLRLSCAASGNTFYFNAMGWYRQAPGKERELVAAITSGGNTNYADSVKGRFTISRDHAKNTFNLQMNSLKPEDSAVYYCNVPRFSPIRNYDYWGQGTQVTVSS', 'polyreactivity (PSR sort gate)', 'high polyreactivity'),
  ('QVQLVESGGGLVQAGGSLRLSCAPSGFIFYTNAMGWYRQAPGKDRELVAAITCIGVSTYYADSVKGRFTISRDYAKNTVYLKMNSLKPEDTEVYYCAADRNFLIFTPDNLTMDYWGQGTQVTVSS', 'polyreactivity (PSR sort gate)', 'low polyreactivity'),
  ('QVQLVESGGGLVQAGGSLRLSCAASGIIFYFYAMGWYRQAPGKERELVADITSGDRTNYADSVKGRFTISRDNAKNTVYLQMNSLKPEDTAVYYCAAGTSKPTPIYGYWGQGTQVTVSS', 'polyreactivity (PSR sort gate)', 'low polyreactivity'),
  ('QVQLVESGGGIVQAGGSLRLSCAASGNTFYAYTMGWYRPAPGKERELVAAISSDGSTNYAVSVKGSVTISRDHAKNTVYLQLNCLKPEDTAVYYCAKYTSSRFEYDYWGHGTQVTVSS', 'polyreactivity (PSR sort gate)', 'low polyreactivity');

* * *

- protocol: yeast display, Sf9 membrane polyspecificity reagent, FACS + sequencing; frameworks hold sequencing errors
readout kind: polyreactivity (PSR sort gate)

INSERT INTO results (sequence_data, observed_result) VALUES
  ('QVQLVESGGGLVQAGGSLRLSCAASGFTFNRYAMGWYRQAPGKERELVAAISRGGGSTYYADSVKGRFTISRDNAKNTVYLQMNSLKPEDTAVYYCAADTRVRTCRYGFWGQGTQVNVSS', 'high polyreactivity'),
  ('QVQLVETGGGLVQAGGSLRLSSAASGRTFAYYAMGWYRQAPGKERELVAAISSGGGSTYYADSVKGRFTISRDNAKNTVYLQMNSVKPEDTAVYYCNKGFNYCGWFKKYGYWGQGTQVTVSS', 'high polyreactivity'),
  ('QVQLVESGGGLVQAGGSLRLSCAASGSTFTGYAMGWYRQAPGKERELVAAISRSGGSTYYADSVKGRFTISRDNAKNTVYLQMNSLKPEDTAVYYCYVDPSARRYVYWGQGTQVTVSS', 'high polyreactivity');

* * *

- protocol: yeast display, Sf9 membrane polyspecificity reagent, FACS + sequencing; frameworks hold sequencing errors
readout kind: polyreactivity (PSR sort gate)

INSERT INTO measurements (sequence_data, readout_kind, observed_result) VALUES
  ('QVQLVESGGGLVQAGGSLRLSCAASGRNFLIYAMGWYRQAPRKERELVADISTSGGTTYYADSVKGRFTISRDNAKNTVYLQMNSLKPADTAVYYCAAGSHYWKYYSWGQGTQVTVSS', 'polyreactivity (PSR sort gate)', 'high polyreactivity'),
  ('QVQLVESGGGLVQAGGSLRLSCAASGSTFRYNAMGWYRQAPGKVRQLVAAIDKRGDSTYADSVKGRFTISRDNAKNTVYLQMNSLKPEDTAVYYCAADSDSKYNYGFLWDTYEYWGQGTQVTVSS', 'polyreactivity (PSR sort gate)', 'low polyreactivity'),
  ('QVQLVESGGGLVQAGGSLRLSCAASGLTFYWNAMGWYRQAPGKERELVASISQSSGNTYYADSVKGRFSISRDNAKNTVYLQMNSLKPEDTAVYYCAARNRPSLNRYYYWGQGTQVNVSS', 'polyreactivity (PSR sort gate)', 'low polyreactivity'),
  ('QVQLVESGGGLVQAGGSLRLSCAASGSTFYKYAMGWYRPAPGKERELVATINISGGSTSYADSVKGRFTISRDNAKNTVYLQMNSLKPQDTAVYYSNADAFYLGHDYWGQGTEVTVSS', 'polyreactivity (PSR sort gate)', 'high polyreactivity'),
  ('QFQLVYSGGGLVQAGGSLRLSCAASGRTYGIYAMVWYRQAPGKERDLVAAISSDASTSYADSLKGRFTISRDNAKITVYLQMNSLKPEDTAVYYCGADPGTYYEWGYVYWGQGTQVTVSS', 'polyreactivity (PSR sort gate)', 'low polyreactivity');

* * *

- protocol: yeast display, Sf9 membrane polyspecificity reagent, FACS + sequencing; frameworks hold sequencing errors
readout kind: polyreactivity (PSR sort gate)

INSERT INTO measurements (sequence_data, readout_kind, observed_result) VALUES
  ('QVQLVESGGGLVQAGGSLRLSCAASGFTFYWYAMGWYRQAPGKERELVAAISTSDTSTYADSVKGRFTISRDNAKNTVYLQMNSLKPEDTAVYYCNRRQYYYYGTSRYNYWGQGTQVTVSS', 'polyreactivity (PSR sort gate)', 'low polyreactivity'),
  ('QVQLVESGGGLVQAGGSLRLSCAASGSIFPPYVMGWYRQAPGKERELVASITTSGGSTYYADSVKGRFTISRDNAKNTVYLQIKSLKPEDTAVYYCAARWYYGGKSAGPGGGYWGQGTQVTVSA', 'polyreactivity (PSR sort gate)', 'low polyreactivity'),
  ('QVQLVESGGGLVEAGGSLRLSCAASGSIFAVNTMGWYRKAPGKERELVASITRGGSTNYADSVKGRFAISRDNAKKSVYLQMNSQKPEDSAVYYCAARPTWWYDYWGQGNQVTVSS', 'polyreactivity (PSR sort gate)', 'high polyreactivity'),
  ('QVQLVESGGGLVQAGGSLRLSCAASGRTFYPYAMGWYRQAPGKEREFVAVINRSVGSPYYADSVNGRFTISRDNAKNTVYLQMNSLKPEDTAVYYCAAREPLSYYVGGDYWGQGTQVTVSS', 'polyreactivity (PSR sort gate)', 'low polyreactivity'),
  ('QVQLVESGGGLVQAGGSLRLRCAASGRIFKSYAMGWYRQAPGKERELVAAINWSGGSTYYADSVKGRFTISRDNAKNTVYLQMNSLKPEDTAVYYCNALYAVRSYDSWGQGTQVTVSS', 'polyreactivity (PSR sort gate)', 'high polyreactivity'),
  ('QVQLVESGGGLVQAGGSLRLSCAASGSIFLSNAMGCYRQAPGKEREIVADIDWTGGDTYYADSVKGRFTISRDNAKNTVYLQMNSLKPEDTAVYYCAADYGYRNLLTEYSYWGQGTQVTVSS', 'polyreactivity (PSR sort gate)', 'low polyreactivity'),
  ('QVQLVESGGGLVQAGGSLRLSCAASGSIFLYYVMGWYRKAPGKERELVAAITWDGGSTYYADSVKGRFTISRDNAKNTVYLQMNSLKPEDTAVYYCNKGFKLWPRYGYDYWGQGTQVTVSS', 'polyreactivity (PSR sort gate)', 'low polyreactivity'),
  ('QVQLVESGGGLVQAGGSLRLSCAASGFTIRYYAMGWYRQAPGKERELVAAISSSGGSTYYADSVKGRFTISRDNAKNTVYLQMNSLKTEDTAVYYCAAYYHGRMDYWGQGTQVTVSS', 'polyreactivity (PSR sort gate)', 'high polyreactivity'),
  ('QVQLVESGGGLVQAGGSLRLSCAASGSTFAANAMGWYRQAPGKERELVAALTRSGGSTYYADSVKGRFTISRDNAKNTVYLQMNSLKPEDTAVYYCASKYHTRGVQHGYWGQGTQVTVSS', 'polyreactivity (PSR sort gate)', 'low polyreactivity'),
  ('QVQLVESGGGIVQAGGSLRLSCAASGFTFAYYAMGWYRQAPGKERELVAAITRGGGRTFYADSVKGRFTISRDNAKNTVYLQMNSLKPEDTAVYYCAAVKDTTNSRGYGYWGQGTHVTVSS', 'polyreactivity (PSR sort gate)', 'high polyreactivity'),
  ('QVQLVESWGGLVQAGGSLRLSCAASGSIFDFNGMGCYRQAPGKERELVAAISGGGGSTYYADSVKGRFTISRDNAKNTVYLQMNSLKPEDTAVYYCAAAYSTYRFIYEYWGQATQVTVSS', 'polyreactivity (PSR sort gate)', 'high polyreactivity');
